Catalogue of molecules with associated growth
test system: HOP-62 NSCLC; experiment: NCI-60 one-dose screen, 48 h (100 = growth as untreated, 0 = no growth, -100 = all killed); conditions: 10 µM unless noted
About 83,000 compounds went through this panel and 20% of them were active in at least one assay; those are over-represented in the sample as a whole.
measured_property: growth (%)

INSERT INTO results (molecule, value_observed) VALUES
  ('CCN(CC)CCOc1ccc(/C(=C(\C)Cc2ccc(OC)cc2)c2ccc(OC(=O)NCc3ccccc3)cc2)cc1', 79.7),
  ('Cn1c(C#N)ccc1-c1ccc(F)c(NC(=O)c2ccc(F)cc2)c1', 75.8),
  ('COc1ccc2c(c1)CC[C@@H]1[C@@H]2CC[C@]2(C)C3C(=CC(COC(C)=O)C4C(=O)N(c5ccc(Cl)cc5)C(=O)C43)C[C@@H]12 (some centres undefined)', 98.4),
  ('CC/C(=C(/c1ccc(O)cc1)c1ccc(OCCN2CCCCC2)cc1)c1ccc(OC)cc1', 83.5);

====

tested on: MOLT-4 leukemia; experiment: NCI-60 one-dose screen, 48 h; settings: 10 µM unless noted
Compounds without any hit were thinned out: in the full panel of roughly 83,000, 20% have a hit. Active and inactive are the calls of the source. The calls were made as follows: active = growth percent below 10; inactive = the rest.
Outcome codes: Y (active), N (inactive)

INSERT INTO assay_data (compound, group_label) VALUES
  ('Cc1cccc(NC(=O)Cn2cc(CN3CCN(c4ccnc5cc(Cl)ccc45)CC3)nn2)c1', 'Y'),
  ('C=CCN=c1sc(-c2ccc3ccccc3c2)cn1NC(=O)c1cc2ccc1CCc1ccc(cc1)CC2', 'N'),
  ('CN(C)CCCC1(c2ccc(F)cc2)OCc2cc(-c3csc4ccccc34)ccc21 (stereo not given)', 'Y'),
  ('COc1ccc(N/N=C/c2cn(-c3ccc(C(=O)O)cc3)nc2-c2cc3ccccc3oc2=O)cc1', 'N'),
  ('O=C1/C(=C/c2cccc(Br)c2)COc2ccc(O)cc21', 'Y'),
  ('COc1cc(/C=C/c2cn[nH]c2-c2ccc(C)cc2)cc(OC)c1OC', 'N'),
  ('CCOC(=O)c1ccc[nH]1', 'N'),
  ('Nc1ccc(Br)cc1C(F)(F)F', 'N'),
  ('COc1ccc2c(c1)CC[C@@H]1[C@@H]2CC[C@]2(C)C3C(=CC(COC(C)=O)C4C(=O)N(c5ccc(Cl)cc5)C(=O)C43)C[C@@H]12 (stereo not given in full)', 'N'),
  ('Nc1nc2ccccc2c2c(=O)c3cc(Cl)ccc3sc12', 'N');

====

Catalogue of molecules with associated growth
test system: CCRF-CEM leukemia; experiment: NCI-60 one-dose screen, 48 h (100 = growth as untreated, 0 = no growth, -100 = all killed); settings: 10 µM unless noted
The panel holds about 83,000 compounds, 20% with a hit somewhere; the sample as a whole holds those more often.
measured_property: growth (%)

INSERT INTO assay_data (molecule, unit_label, value_observed) VALUES
  ('CCOC(=O)c1c(C)nc2ccccc2c1/C=C/c1ccc(F)cc1', '%', 67.8),
  ('COc1cc(/C=C/C(=O)N2CCN(C(=O)c3cc(OC)c(OC)c(OC)c3)CC2)ccc1OCCCOc1cc2c(cc1OC)C(=O)N1CCC[C@H]1C=N2', '%', -1.17),
  ('CCOC(=O)CNC1=C(Cl)C(=O)N(Cc2ccc(Cl)cc2)C1=O', '%', 102),
  ('c1ccc(-c2ccc3c(c2)C2(CCNCC2)CN3)cc1', '%', 112),
  ('O=C(/C=C/c1cccc(Oc2ccccc2)c1)c1ccc(Nc2nc(Nc3ccc(F)cc3)nc(Nc3ccc(Cl)cc3)n2)cc1', '%', 116),
  ('O=C(O)CC(C(=O)O)/C(=C\c1ccccc1)c1ccccc1 (centres undefined)', '%', 94.6),
  ('NS(=O)(=O)c1ccc(C(=O)NN2C(=O)c3ccccc3C2=O)cc1', '%', 107),
  ('O=c1cc(C(F)(F)F)c2cc(-c3cc4ccccc4c(=O)o3)c(O)cc2o1', '%', 53.9),
  ('COc1cc2c(c(OC)c1OC)C(=O)CC(c1cccc(C(=O)Nc3ccc(C#N)cc3)c1)O2 (centres undefined)', '%', 25);

====

Catalogue of molecules with associated growth
Tested on: EKVX NSCLC
Assay: NCI-60 one-dose screen, 48 h (100 = growth as untreated, 0 = no growth, -100 = all killed)
Conditions: 10 µM unless noted
Method: Growth inhibition of the EKVX human Non-Small Cell Lung tumor cell line is measured as a screen for anti-cancer activity. Cells are grown in 96 well plates and exposed to the test compound for 48 hours. Compounds are tested at a single concentration, which is 10^-5 M for most compounds. The reported endpoint is percent growth (GI% or GIPRCNT), where numbers from 0 - 100% represent growth inhibition, and numbers from -100% - 0 represent cell death. […]
Compounds without any hit were thinned out: in the full panel of roughly 83,000, 20% have a hit. Activity calls are given as the source filed them. Rule for the calls: active = growth percent below 10; inactive = the rest.
measured_property: growth

INSERT INTO measurements (molecule, value_observed) VALUES
  ('CN(C)Cc1cc(C(C)(C)C)cc(Br)c1O', '96.8% (inactive)'),
  ('Nc1nc(N)c2c(n1)NC(c1cccc(Nc3ccnc4cc(C(F)(F)F)ccc34)c1)CC(c1ccc3c(c1)OCO3)=N2 (stereo not given)', '76.7% (inactive)'),
  ('COc1cc2c(c(OC)c1OC)CCC(c1cccc(C(=O)Nc3ccc(Br)cc3)c1)O2 (stereo not given)', '60.5% (inactive)'),
  ('Cc1ccc(OCCOCCOCCOCCOCCOc2ccc(C)n(O)c2=S)c(=S)n1O', '13.1% (inactive)'),
  ('COc1cc2ncnc(Nc3ccc(F)c(Cl)c3)c2cc1OCC(=O)N1CCOCC1', '63.3% (inactive)');

====

system: CAKI-1 renal; test: NCI-60 one-dose screen, 48 h; details: 10 µM unless noted
The panel holds about 83,000 compounds, 20% with a hit somewhere; the sample as a whole holds those more often. The source made the active and inactive calls. The calls were made as follows: active = growth percent below 10; inactive = the rest.
Outcome codes: 1 (yes) (active), 0 (no) (inactive)

INSERT INTO measurements (molecule, group_label) VALUES
  ('COc1ccc(Nc2ncc(C#N)c(NCCCNC(=O)C3CCC3)n2)cc1', '0 (no)'),
  ('Cc1ccc(Cc2cnc(NC(=O)/C=C/c3ccc(C)o3)s2)cc1', '0 (no)'),
  ('O=C(NNc1nc2cc(F)ccc2n2c(CN3CCOCC3)ccc12)c1ccccc1', '1 (yes)'),
  ('O=C(NCCNC(c1ccccc1)C(NCCNC(=O)c1ccccc1)c1ccccc1)c1ccccc1 (stereo unspecified)', '0 (no)'),
  ('COC(=O)/C(CCC=C(C)C)=C1\[C@@H](OC(C)=O)C[C@@]2(C)[C@H]1C/C(=N/O)[C@H]1[C@@]3(C)CC/C(=N\O)[C@@H](C)[C@@H]3CC[C@@]12C', '0 (no)'),
  ('CCn1cc(C(=O)N/N=C/c2ccccc2)c(=O)c2cc(F)c(N3CCNC(C)C3)c(F)c21 (stereo unspecified)', '0 (no)'),
  ('O=C(NC1CCC(Br)CC1)C1CCCC(S(=O)(=O)NC2CCCCC2)C1 (stereo unspecified)', '0 (no)'),
  ('Cc1ccc2c(/C=C/C(=O)c3cc(CN4CCOCC4)c(O)c4nc(C)ccc34)cc(CN3CCOCC3)c(O)c2n1', '0 (no)'),
  ('CCN(CC)CCOc1ccc(Nc2ncc3cc(-c4c(Cl)cccc4Cl)c(=O)n(CCOC)c3n2)cc1', '1 (yes)'),
  ('O=S(O)c1cc(Cl)cc(Cl)c1OCc1ccccc1', '0 (no)'),
  ('CCOC(=O)c1nnn(-c2no[n+]([O-])c2-c2ccc(OC)cc2)c1COc1cccc2cccnc12', '0 (no)'),
  ('O=C(/C=C/c1cccc(Oc2ccccc2)c1)c1ccc(Nc2nc(Nc3ccc(F)cc3)nc(Nc3ccc(Cl)cc3)n2)cc1', '0 (no)'),
  ('CS(=O)(=O)Nc1cc(-c2ccc3ncnc(Nc4ccc(OCc5ccccn5)c(Cl)c4)c3c2)cnc1Cl', '0 (no)'),
  ('CCOC(=O)CNC1=C(Cl)C(=O)N(Cc2ccc(Cl)cc2)C1=O', '0 (no)'),
  ('C/C=C1/CN(CCCCC)CC[C@H]1C(=O)c1cc2ccccc2[nH]1', '0 (no)'),
  ('Fc1ccc(/C=C/[C@@H]2C[C@@H](F)CCO2)cc1', '0 (no)'),
  ('CCCCO[C@@H]1C=C2[C@H]3CC(C)(C)C(=O)C[C@]3(C(=O)O[C@@H]3O[C@H](CO[C@@H]4O[C@H](CO)[C@@H](OC5OC(C)C(O)C(O)C5O)[C@H](O)[C@H]4O)[C@@H](O)[C@H](O)[C@H]3O)CC[C@@]2(C)[C@]2(C)CC[C@H]3C(C)(C)C(=O)CC[C@]3(C)[C@@H]12 (stereo partly specified)', '0 (no)'),
  ('CC[C@@H](C(=O)[C@@H](C)[C@@H](O)[C@H](C)[C@@H]1O[C@@H]([C@@H](CC)C(=O)ONC(=O)c2ccccc2O)CC[C@@H]1C)C1O[C@]2(C=CC(=O)[C@]3(CC[C@@](C)([C@H]4CC[C@](O)(CC)[C@H](C)O4)O3)O2)[C@H](C)C[C@@H]1C (stereo partly specified)', '0 (no)'),
  ('CCOC(=O)c1c(C)nc2c(c1N)C(=O)C(=O)N2Cc1ccc(OC)cc1', '0 (no)'),
  ('Cc1cccc(N2C(=O)/C(=C/C(Cl)=C/c3ccc([N+](=O)[O-])cc3)SC2=S)c1C', '0 (no)'),
  ('O=C(c1cccc(N2CCOCC2)n1)c1c[nH]c2ccccc12', '0 (no)'),
  ('Cc1sc2nc(NCCN)[nH]c(=O)c2c1C', '0 (no)'),
  ('CCOC(=O)CC1CSC(N/N=C/c2ccc(F)c(Br)c2)=N1 (stereo unspecified)', '0 (no)'),
  ('C=C1SC(=Nc2ccccc2Cl)N(C(=O)c2sc3ccccc3c2Cl)C1(C)C', '0 (no)'),
  ('Cn1c2ccccc2c2c3c(c4c5cc(Br)ccc5n(C)c4c21)C(=O)N(O)C3=O', '1 (yes)'),
  ('CC1=C2[C@@H](CC1)[C@]1(C)O[C@@](C3CCNCC3)(C[C@H]1OC(=O)CO)[C@H]2OC(=O)/C=C/c1ccccc1', '0 (no)'),
  ('CSc1nc2ccc(C)cc2cc1/C=C1/C=C(c2ccccc2)NC1=O', '1 (yes)'),
  ('CCOC(=O)c1cnn(CC(C)O)c1NC(=O)NCc1ccccc1C(F)(F)F (stereo unspecified)', '0 (no)'),
  ('CCN(CC)c1ccc(-c2cc(-c3cc(OC)c(OC)c(OC)c3)nc(N3CCC(O)CC3)c2C#N)cc1', '1 (yes)'),
  ('COc1cc([C@@H](CCO)C[C@H](C)c2ccc3ccccc3c2)cc(OC)c1OC', '0 (no)'),
  ('CN(C)c1ccc(CNCCO)cc1', '0 (no)'),
  ('CSc1ccc(N2C(=N)C(=S)N(c3ccc(C)cc3)C2=O)cc1', '0 (no)'),
  ('CCOC(=O)C(CCN(C)C)c1ccccc1 (stereo unspecified)', '0 (no)'),
  ('Nc1nc(N)c2c(n1)NC(c1cccc(Nc3ccnc4cc(C(F)(F)F)ccc34)c1)CC(c1ccc3c(c1)OCO3)=N2 (stereo unspecified)', '0 (no)'),
  ('Clc1ccc(Nc2nnc(CNc3ccccc3)c3ccccc23)cc1', '0 (no)'),
  ('CN1CCN(c2ccc(NC3=CC(=O)c4ncncc4C3=O)cc2)CC1', '1 (yes)');

The origin of these recorded values is PubChem BioAssay (NCI).
